# Tested on: OVCAR-4
# Protocol summary: NCI tumour cell line growth inhibition, 48 h
Active and inactive are the calls of the source. Cut-off read from the data, not from the text of the source: active = GI50 up to about 1.1 µM and inactive = higher.
Select the correct class. Options are 1 (active), 0 (inactive) and nothing else.

Task: Hey, what did the test say about CCCN1CN(C(C(=O)N[C@@H]2C(=O)N3C2SC(C)(C)C3C(=O)O)c2ccc(O)cc2)CSC1=S (stereo partly specified) ?
Output: 0

Task: Hey, what did the test say about CC1(C)OC2OC(C(COS(=O)(=O)C(F)(F)F)N=[N+]=[N-])C(OC(=O)c3ccccc3)C2O1 (stereo unspecified) ?
Output: 0

Task: Hey, what did the test say about COC(=O)C(=O)C(C(=O)C(=O)Nc1ccc(OC)cc1[N+](=O)[O-])c1nc2ccc([N+](=O)[O-])cc2nc1O (stereo unspecified) ?
Output: 0

Task: Hey, what did the test say about CC1=C(C(=O)Nc2ccccc2C)C(c2ccccc2O)C(C(=O)Nc2ccccc2C)=C(C)N1 ?
Output: 0

Task: Hey, what did the test say about COc1ccccc1NC(=S)NNC(=O)c1cc(-c2ccccc2)nc2ccccc12 ?
Output: 0

Task: Hey, what did the test say about CCCNC1CC(n2cc(C)c(=O)[nH]c2=O)OC1CO (stereo unspecified) ?
Output: 0

Task: Hey, what did the test say about Cc1[nH]c(=O)nc(N(CCO)/N=C/c2ccccc2Cl)c1C(=O)Nc1cc(Cl)cc(Cl)c1 ?
Output: 0

Task: Hey, what did the test say about CCC1c2[nH]c3ccccc3c2C[C@H]2C(=O)NC(Cc3ccccc3)C(=O)N12 (stereo partly specified) ?
Output: 0

Task: Hey, what did the test say about C=CCOC1OC(CS(=O)(=O)O)C(O)C(O)C1O (stereo unspecified) ?
Output: 0

Task: Hey, what did the test say about CN(CCO)c1nc2c(c(=O)[nH]1)CNCC2 ?
Output: 0

Task: Hey, what did the test say about COc1ccc2cc(CNCCCN3CCN(CCCNCc4ccc5cc(OC)ccc5c4)CC3)ccc2c1 ?
Output: 0

Task: Hey, what did the test say about O=C1c2ccc(O)c(O)c2C(=O)c2c(O)ccc(O)c21 ?
Output: 0

Task: Hey, what did the test say about COc1ccc(CN2CC(C)(C)C2=O)c(OC)c1 ?
Output: 0

Task: Hey, what did the test say about CC1(C)C(=NNC(=S)NN)C(C)(C)C1=NNC(=S)NN ?
Output: 0

Task: Hey, what did the test say about COc1ccc(/C=N/NS(=O)(=O)c2ccc(/C=C3\NC(=O)N(C)C3=O)cc2)cc1 ?
Output: 0

Task: Hey, what did the test say about CC(=O)O[C@H]1C(=O)N(c2cc3c4ccccc4ccc3c3ccccc23)[C@@H]1c1ccccc1 ?
Output: 0

Task: Hey, what did the test say about CCOC(=O)C(C(=O)c1ccccc1C(=O)OC)=P(c1ccccc1)(c1ccccc1)c1ccccc1 ?
Output: 0

Task: Hey, what did the test say about COc1c(O)cc2c3c(ccnc13)NC=C2 ?
Output: 0

Task: Hey, what did the test say about COc1cccc(C2c3cc4c(cc3OC(C)(N3CCCC3)C2C)OCO4)c1O (stereo unspecified) ?
Output: 0

Task: Hey, what did the test say about CCCCCC(C(O)C#N)C(O)(C(F)(F)F)C(F)(F)F (stereo unspecified) ?
Output: 0

Task: Hey, what did the test say about CCc1n[nH]c(=O)n1/N=C/c1ccccc1Cl ?
Output: 0

Task: Hey, what did the test say about Clc1ccc(-c2c(C3=NCCN3)nnn2-c2ccc(Cl)cc2)cc1 ?
Output: 0

Task: Hey, what did the test say about c1ccc(Cc2cccc3cc(-c4ccc(-c5ccccc5)cc4)[nH]c23)cc1 ?
Output: 0

Task: Hey, what did the test say about N#CC(Sc1ccccc1)C(N)=O (stereo unspecified) ?
Output: 0

Task: Hey, what did the test say about COC1(OC)CC(CO)(CNc2nc(N)nc(Cl)c2/C=N\O)C1 ?
Output: 0

Task: Hey, what did the test say about Fc1ccc(C2SCc3nc4ccccc4n32)cc1F (stereo unspecified) ?
Output: 0

Task: Hey, what did the test say about COC(=O)c1ccccc1CC(Cc1ccccc1)C(=O)OC (stereo unspecified) ?
Output: 0

Task: Hey, what did the test say about CC1(C)NC(C(=O)c2ccccc2)=[N+]([O-])C1(O)c1ccccc1 (stereo unspecified) ?
Output: 0

Task: Hey, what did the test say about Cc1ccc(C(C2C(=O)N(C)C(=O)N(C)C2=O)C(F)(F)C(=O)N(C)C)cc1 (stereo unspecified) ?
Output: 0

Task: Hey, what did the test say about CCCC(=O)Nc1cc(/C=C/C(=O)N2CC(CCl)c3ccc(N)cc32)n(C)c1 (stereo unspecified) ?
Output: 1

Task: Hey, what did the test say about CN(C)CCOc1cc2c(c3ccccc13)-c1ccccc1C2O (stereo unspecified) ?
Output: 0

Task: Hey, what did the test say about CC1=CC(O)(c2ccccc2)C(N2CCOCC2)N1O (stereo unspecified) ?
Output: 0

Task: Hey, what did the test say about C1CC[N+]23CCCC[N+]2(C1)CCCC3 (stereo unspecified) ?
Output: 0

Task: Hey, what did the test say about C[N+](C)(C)CCN[N+]1(C)CCCc2ccccc21 (stereo unspecified) ?
Output: 0

Task: Hey, what did the test say about CCOC(=O)c1cn2c([nH]c3ccccc32)c(C#N)c1=O ?
Output: 0

Task: Hey, what did the test say about Nc1nc2ccc3ccccc3c2[nH]1 ?
Output: 0
